system: HepG2 cells; experiment: HepG2 cytotoxicity dose response assay; settings: read-out: CC50 (HepG2)/μM, 44 hrs + 4 hrs alamarBlue/resazurin
observable: CC50

State the recorded CC50 for every item in the following list.
1. CNC(=O)c1ccccc1NC(=O)c1ccc([N+](=O)[O-])s1 [Compound 28]
2. CNC(=O)c1ccc(Br)cc1NC(=O)c1ccc([N+](=O)[O-])s1 [Compound 46]
3. CNC(=O)c1ccc(C(F)(F)F)cc1NC(=O)c1ccc([N+](=O)[O-])s1 [Compound 45]
4. CNC(=O)c1ccc(OC)cc1NC(=O)c1ccc([N+](=O)[O-])s1 [Compound 43]
5. CNC(=O)c1ccc(C)cc1NC(=O)c1ccc([N+](=O)[O-])s1 [Compound 44]

1: 5 µM; 2: 7.2 µM; 3: 13 µM; 4: > 100 µM; 5: 31 µM

====

assay: Kinetic solubility; details: kinetic solubility in PBS, 2 hrs at RT
observable: Solubility (PBS)/μM

smiles-representation: CNC(=O)c1ccc(OC)cc1NC(=O)c1ccc([N+](=O)[O-])s1
Solubility (PBS)/μM: <7.4 µM

Hi, could you look up Solubility (PBS)/μM for each item in my list?
1. CNC(=O)c1ccc(C(F)(F)F)cc1NC(=O)c1ccc([N+](=O)[O-])s1
2. O=C(Nc1ccccc1)c1ccc([N+](=O)[O-])s1
3. CNC(=O)c1ccccc1NC(=O)c1ccc([N+](=O)[O-])s1
4. CNC(=O)c1ccc(Br)cc1NC(=O)c1ccc([N+](=O)[O-])s1
5. CNC(=O)c1ccc(C)cc1NC(=O)c1ccc([N+](=O)[O-])s1

6.5 µM
15 µM
8.5 µM
<2.5 µM
<7.4 µM

====

test system: T. cruzi epimastigotes; assay: T. cruzi epimastigote dose response assay; assay type: cell-based; details: Trypanosoma cruzi; epimastigotes, 72 hours at 28° C., counted; read-out: EC50 (T. cruzi)/μM
observable: EC50 (µM)
Give bare numbers, in µM.

Recall the recorded EC50 for CNC(=O)c1ccc(OCCN2CCOCC2)cc1NC(=O)c1ccc([N+](=O)[O-])s1 with T. cruzi epimastigotes and state it. 13

====

experiment: Kinetic solubility; conditions: FESSIF, kinetic from dmso stock
observable: solubility at 2 h
Show the value, then the unit it is measured in.

molecule: CNC(=O)c1ccc(OCCOCCOC)cc1NC(=O)c1ccc([N+](=O)[O-])s1 [Compound 51]
solubility at 2 h: 7.26 µM
//
molecule: CNC(=O)c1ccc(C(C)(C)C)cc1NC(=O)c1ccc([N+](=O)[O-])s1 [Compound 55]
solubility at 2 h: 260 µM
//
molecule: CNC(=O)c1ccc(OCCC2CCOCC2)cc1NC(=O)c1ccc([N+](=O)[O-])s1 [Compound 54]
solubility at 2 h: 47 µM
//
molecule: CNC(=O)c1ccc(OCCN2CCOCC2)cc1NC(=O)c1ccc([N+](=O)[O-])s1 [Compound 52]
solubility at 2 h: 1870 µM

Given CNC(=O)c1ccc(OCCCN2CCOCC2)cc1NC(=O)c1ccc([N+](=O)[O-])s1 [Compound 53] , state its recorded solubility at 2 h. 4700 µM

====

Exercise: for every item that follows, state its recorded EC50.
test system: L. donovani promastigotes; experiment: L. donovani promastigote dose response assay (resazurin); assay type: cell-based; conditions: promastigotes, 72 hrs at 26° C., resazurin; read-out: EC50 (L. don)/μM
One number for each entry, in µM.

As a guide, the following entries are already answered.
compound: CNC(=O)c1ccccc1NC(=O)c1ccc([N+](=O)[O-])s1 [Compound 28]
EC50, µM: 0.012
//
compound: CNC(=O)c1ccc(OC)cc1NC(=O)c1ccc([N+](=O)[O-])s1 [Compound 43]
EC50, µM: 0.006
//
compound: CNC(=O)c1ccc(Br)cc1NC(=O)c1ccc([N+](=O)[O-])s1 [Compound 46]
EC50, µM: 0.12

For each of the compounds below, state EC50.
1. CNC(=O)c1ccc(C)cc1NC(=O)c1ccc([N+](=O)[O-])s1 [Compound 44]
2. CNC(=O)C1CCCC1NC(=O)c1ccc([N+](=O)[O-])s1 (racemic) [Compound 25]
3. O=C(Nc1ccccc1)c1ccc([N+](=O)[O-])s1 [Compound 33]

1. 0.005
2. 3.4
3. 0.93
